# Tested on: Saccharomyces cerevisiae;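 further: PSI is a weighted mean of sequencing reads over stability bins, variants kept only with over 10 reads, mCherry proximal and sfGFP distal, peptide attached via GGGS linker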
# Assay: protein stability index of tFT-peptide fusion (C-terminal peptide) (PSI (0-1 scale)); higher = more stable (slower turnover)
# Details: genetic background: wild type; temperature: 30 C
Please go through the items and note down their protein stability index.
Give the figure by itself; no unit, no explanation.

Task item: What does the record list as protein stability index for KKTKNKKKQNGK ?
Reply: 0.686

Task item: What does the record list as protein stability index for RLVCPFYIACVW ?
Reply: 0.516

Task item: What does the record list as protein stability index for LHSPWPFSAPGI ?
Reply: 0.855

Task item: What does the record list as protein stability index for PPPPPLPPPPSP ?
Reply: 0.656

Task item: What does the record list as protein stability index for LVGRRGVVGIVP ?
Reply: 0.63

Task item: What does the record list as protein stability index for STDRPLRLHPGG ?
Reply: 0.622

Task item: What does the record list as protein stability index for SLDFTERHALAC ?
Reply: 0.709

Task item: What does the record list as protein stability index for VLYCYPYLVLPP ?
Reply: 0.678

Task item: What does the record list as protein stability index for NRGTRQIIIKKK ?
Reply: 0.653

Task item: What does the record list as protein stability index for SDQPTWTAQTSN ?
Reply: 0.783

Task item: What does the record list as protein stability index for SPPPPLLPHPTP ?
Reply: 0.723

Reference for the values: the supplement of paper PMC10724198
